Value source: ChEMBL document CHEMBL4406909

# assay-remarks: Antioxidant activity assessed as DPPH free radical scavenging activity at 100 uM incubated for 60 mins by spectrophotometric method relative to control
# Type: functional
endpoint-label: Activity (%)
Write it as a number; the unit % goes unstated.

Q: For the molecule `O=C(N/N=C/c1ccc(Oc2nc(Oc3ccc(/C=N/NC(=O)c4ccc(O)cc4O)cc3)nc(Oc3ccc(/C=N/NC(=O)c4ccc(O)cc4O)cc3)n2)cc1)c1ccc(O)cc1O` , give its measured Activity value.
Result: 55.3

Q: Item `O=C(N/N=C/c1ccc(Oc2nc(Oc3ccc(/C=N/NC(=O)c4ccc([N+](=O)[O-])cc4)cc3)nc(Oc3ccc(/C=N/NC(=O)c4ccc([N+](=O)[O-])cc4)cc3)n2)cc1)c1ccc([N+](=O)[O-])cc1` : provide Activity
Result: 0.5

Q: Output Activity of `CC(C)(C)c1ccc(C(=O)N/N=C/c2ccc(Oc3nc(Oc4ccc(/C=N/NC(=O)c5ccc(C(C)(C)C)cc5)cc4)nc(Oc4ccc(/C=N/NC(=O)c5ccc(C(C)(C)C)cc5)cc4)n3)cc2)cc1`
Result: 4

Q: State its Activity: `Oc1ccc(/C=C/c2cc(O)cc(O)c2)cc1`
Result: 46.8

###

# assay-remarks: Thermal stability of compound in DMSO/methanol assessed as onset temperature by UV spectroscopic method
# Format: physicochemical
Could you please report measured T for the items listed next?
Write the number in °C without appending the unit.

Q: Give the value of T reported for the following: `O=C(N/N=C/c1ccc(Oc2nc(Oc3ccc(/C=N/NC(=O)c4ccccc4O)cc3)nc(Oc3ccc(/C=N/NC(=O)c4ccccc4O)cc3)n2)cc1)c1ccccc1O`
Result: 264.89

Q: Complete the entry with T for `CC(C)(C)c1ccc(C(=O)N/N=C/c2ccc(Oc3nc(Oc4ccc(/C=N/NC(=O)c5ccc(C(C)(C)C)cc5)cc4)nc(Oc4ccc(/C=N/NC(=O)c5ccc(C(C)(C)C)cc5)cc4)n3)cc2)cc1`
Result: 324.37

Q: Provide measured T value, entry: `O=C(N/N=C/c1ccc(Oc2nc(Oc3ccc(/C=N/NC(=O)c4ccncc4)cc3)nc(Oc3ccc(/C=N/NC(=O)c4ccncc4)cc3)n2)cc1)c1ccncc1`
Result: 235.6

Q: Please list T recorded for the molecule `O=C(N/N=C/c1ccc(Oc2nc(Oc3ccc(/C=N/NC(=O)c4ccc(O)cc4)cc3)nc(Oc3ccc(/C=N/NC(=O)c4ccc(O)cc4)cc3)n2)cc1)c1ccc(O)cc1`
Result: 267.35

Q: Input `O=C(N/N=C/c1ccc(Oc2nc(Oc3ccc(/C=N/NC(=O)c4ccc([N+](=O)[O-])cc4)cc3)nc(Oc3ccc(/C=N/NC(=O)c4ccc([N+](=O)[O-])cc4)cc3)n2)cc1)c1ccc([N+](=O)[O-])cc1` , output reported T.
Result: 291.8

###

# assay-remarks: Thermal stability of compound in DMSO/methanol assessed as decomposition temperature by UV spectroscopic method
# Format: physicochemical
endpoint-label: T (°C)
Quick note: give the figure in °C, leave out the unit.

Q: Kindly indicate its recorded T. Item: `CC(C)(C)c1ccc(C(=O)N/N=C/c2ccc(Oc3nc(Oc4ccc(/C=N/NC(=O)c5ccc(C(C)(C)C)cc5)cc4)nc(Oc4ccc(/C=N/NC(=O)c5ccc(C(C)(C)C)cc5)cc4)n3)cc2)cc1`
Result: 326.22

Q: For the compound Oc1ccc(/C=C/c2cc(O)cc(O)c2)cc1 [RESVERATROL] , give its reported T.
Result: 266.95

Q: Dear colleague, please send me the reported T for `O=C(N/N=C/c1ccc(Oc2nc(Oc3ccc(/C=N/NC(=O)c4ccc(O)cc4O)cc3)nc(Oc3ccc(/C=N/NC(=O)c4ccc(O)cc4O)cc3)n2)cc1)c1ccc(O)cc1O` when you can.
Result: 309.94

###

Please respond with reported T for every item in the list.
# assay-remarks: Thermal stability of compound in DMSO/methanol assessed as onset temperature by UV spectroscopic method
# Format: physicochemical
Output spec: scalar in °C, unitless text.

Q: Read off the recorded T for `O=C(N/N=C/c1ccc(Oc2nc(Oc3ccc(/C=N/NC(=O)c4ccc(O)cc4O)cc3)nc(Oc3ccc(/C=N/NC(=O)c4ccc(O)cc4O)cc3)n2)cc1)c1ccc(O)cc1O`
Result: 218.88

Q: Note down T recorded for CCCCC(CC)COC(=O)c1ccc(Nc2nc(Nc3ccc(C(=O)OCC(CC)CCCC)cc3)nc(Nc3ccc(C(=O)OCC(CC)CCCC)cc3)n2)cc1 (stereo not given)
Result: 119.99

Q: For the compound `O=C(N/N=C/c1ccc(Oc2nc(Oc3ccc(/C=N/NC(=O)c4ccccc4)cc3)nc(Oc3ccc(/C=N/NC(=O)c4ccccc4)cc3)n2)cc1)c1ccccc1` , report T.
Result: 275.89

Q: Specify reported T for the compound shown: `Oc1ccc(/C=C/c2cc(O)cc(O)c2)cc1`
Result: 263.46

Q: Provide one value: measured T of `O=C(N/N=C/c1ccc(Oc2nc(Oc3ccc(/C=N/NC(=O)c4cccc(O)c4)cc3)nc(Oc3ccc(/C=N/NC(=O)c4cccc(O)c4)cc3)n2)cc1)c1cccc(O)c1`
Result: 248.22

###

Consider the following compounds; for each one, report its degraded.
# assay-remarks: Thermal stability of compound in DMSO/methanol assessed as mass loss by UV spectroscopic method
# Assay type: physicochemical
# reported-conditions: read-out: Drug degradation
# value in %; strip the unit string

Q: For the compound `O=C(N/N=C/c1ccc(Oc2nc(Oc3ccc(/C=N/NC(=O)c4ccccc4)cc3)nc(Oc3ccc(/C=N/NC(=O)c4ccccc4)cc3)n2)cc1)c1ccccc1` , report degraded.
Result: 36.7

Q: Report degraded for `O=C(N/N=C/c1ccc(Oc2nc(Oc3ccc(/C=N/NC(=O)c4cccc(O)c4)cc3)nc(Oc3ccc(/C=N/NC(=O)c4cccc(O)c4)cc3)n2)cc1)c1cccc(O)c1`
Result: 18.7

Q: For `O=C(N/N=C/c1ccc(Oc2nc(Oc3ccc(/C=N/NC(=O)c4ccc(O)cc4O)cc3)nc(Oc3ccc(/C=N/NC(=O)c4ccc(O)cc4O)cc3)n2)cc1)c1ccc(O)cc1O` , write its degraded.
Result: 39.8
